system: MDA-MB-435; assay: NCI tumour cell line growth inhibition, 48 h
Parameter measured: TGI

For the molecule O=[N+]([O-])c1ccc(N/N=C2\C=CCCC2)c([N+](=O)[O-])c1 , give its reported TGI.
> 100 µM

For the molecule O=C1Nc2ccc(Cl)cc2C(=O)N2CCC[C@@H]12 , give its reported TGI.
> 100 µM

For the molecule Cc1cccc2c1CC1(Cc3ccccc3C1=O)C2=O (stereo unspecified) , give its reported TGI.
> 100 µM

For the molecule CC(C)Cc1ccc(C(C)C(=O)NCc2ccc(Cn3c(=O)sn(CCCCl)c3=O)cc2)cc1 (stereo unspecified) , give its reported TGI.
2.44 µM

For the molecule O=c1cnnc2sc(=S)[nH]n12 , give its reported TGI.
> 100 µM

For the molecule Cc1cc(C)c2ccc(N3CCNCC3)nc2n1 , give its reported TGI.
> 100 µM

For the molecule CC(=O)Nc1nc2ncc(C=O)nc2c(=O)[nH]1 , give its reported TGI.
> 100 µM

For the molecule CC(C)Oc1c(N(Cc2ccccc2)c2ccccc2C2SCCCS2)c(=O)c1=O , give its reported TGI.
10.3 µM

For the molecule O=C(CNC(=O)c1ccccc1)Oc1c(Cl)c(Cl)c(Cl)c(Cl)c1Cl , give its reported TGI.
94.1 µM

For the molecule CC1(c2ccccc2)N=C(C(N)=O)c2[nH]cnc2N1 (stereo unspecified) , give its reported TGI.
> 100 µM

For the molecule CCCCN(CCCC)CC(O)c1cc(-c2ccc(Cl)c(Cl)c2)nc2c(Cl)cc(Cl)cc12 (stereo unspecified) , give its reported TGI.
> 100 µM

----------
Can you tell me TGI for the items I'm about to list?
system: 786-0 renal; assay: NCI tumour cell line growth inhibition, 48 h
State the answer as a number, implicitly in µM.

For the compound Cc1nc(N)nc(N)c1CCCCc1ccccc1 , give its reported TGI.
19

For the compound CCCCCNC(=O)c1cc2cc(CCl)ccc2oc1=O , give its reported TGI.
2.82

----------
Can you tell me GI50 for the items I'm about to list?

Using ACHN renal as the test system, report measured GI50 of COc1cc2cc(c1Cl)N(C)C(=O)C[C@H](OC(=O)[C@H](C)N(C)C(=O)CCS)C[C@]1(C)O[C@H]1[C@H](C)[C@@H]1C[C@@](O)(NC(=O)O1)[C@H](OC)/C=C/C=C(\C)C2 .
< 0.005 µM

Using ACHN renal as the test system, report measured GI50 of CCN(Cc1ccccc1F)c1ccc(CO)c(Cl)c1 .
19.2 µM

Using ACHN renal as the test system, report measured GI50 of O=C(O)CN(CCN(CC(=O)O)CC(=O)O)CC(=O)O .
> 100 µM

Using ACHN renal as the test system, report measured GI50 of CS(=O)(=O)c1ccc(Oc2cc(F)cc(C#N)c2)c2c1[C@H](O)[C@H](F)[C@H]2F .
> 100 µM

Using ACHN renal as the test system, report measured GI50 of COc1cccc(C(=O)c2sc(Nc3ccc(N4CCN(C(C)C)CC4)cc3)nc2N)c1 .
0.596 µM

Using ACHN renal as the test system, report measured GI50 of CCOC(=O)c1ccc2c(c1)nc(-c1ccc(Cl)cc1)n2-c1cc(C(C)(C)C)[nH]n1 .
3.28 µM

Using ACHN renal as the test system, report measured GI50 of COc1ccc(-c2nn(C(=O)NCCN(C)C)cc2-c2ccncc2)cc1Cl .
3.76 µM

Using ACHN renal as the test system, report measured GI50 of CCN(Cc1cccnc1)c1ccc(CO)c(Cl)c1 .
97.7 µM

Using ACHN renal as the test system, report measured GI50 of COc1cc2c(cc1OC)[C@@H]1C(=O)c3cc4c(cc3[C@@H]1N(CCN(C)C)C2=O)OCO4 .
0.0179 µM

Using ACHN renal as the test system, report measured GI50 of Cc1ccc(/C=C2\COc3ccc(O)c(O)c3C2=O)cc1 .
0.639 µM

Using ACHN renal as the test system, report measured GI50 of CC(=O)O[C@H]1CC[C@]2(C)[C@H]3CC=C4[C@@H]5CC(C)(C)CC[C@]5(C(=O)NCCNCCNCCN)CC[C@@]4(C)[C@]3(C)CC[C@H]2C1(C)C .
1.75 µM
